// provenance: patent US10065990B2

- study.system: HDAC1 (Homo sapiens, UniProt Q13547)
- Sequence (Q13547 whole entry, species assumed): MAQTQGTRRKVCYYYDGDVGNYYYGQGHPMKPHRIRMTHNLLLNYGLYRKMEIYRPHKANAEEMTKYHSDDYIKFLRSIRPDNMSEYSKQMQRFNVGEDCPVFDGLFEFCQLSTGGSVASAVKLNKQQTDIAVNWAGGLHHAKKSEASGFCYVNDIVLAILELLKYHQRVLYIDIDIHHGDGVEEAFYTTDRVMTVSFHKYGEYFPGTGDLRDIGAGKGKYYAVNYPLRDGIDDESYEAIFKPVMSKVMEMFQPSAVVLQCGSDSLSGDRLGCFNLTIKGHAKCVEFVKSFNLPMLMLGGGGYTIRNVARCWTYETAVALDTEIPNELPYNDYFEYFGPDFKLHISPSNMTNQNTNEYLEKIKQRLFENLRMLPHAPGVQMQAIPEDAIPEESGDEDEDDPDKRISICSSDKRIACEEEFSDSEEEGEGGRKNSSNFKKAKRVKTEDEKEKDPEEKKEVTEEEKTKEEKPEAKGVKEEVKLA
- assay.procedure: HDAC biochemical activity measurement (fluorescent substrate deacetylation);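 further: fluorogenic acetyl-lysine substrate (20 µM) deacetylated by HDAC1, then developer releases fluorophore read at 360 nm excitation and 460 nm emission, inhibitor incubated 30 min at 37 °C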
- experimental.setup: Table 3; read-out: IC50 HDAC1, D (non-substituent)
pIC50: −log10 of the molar value.
quantity.name: pIC50

The reported value for C/C=C1\NC(=O)c2cccc(n2)CNC(=O)C[C@@H](/C=C/CCSC(C)=O)OC(=O)[C@H](C(C)C)NC1=O in terms of pIC50 is 7.06

pIC50 reading for C/C=C1\NC(=O)c2cccc(n2)CNC(=O)C[C@@H](/C=C/CCSC(C)=O)OC(=O)[C@H](CCCCN)NC1=O : 6.72

The reported pIC50 of the molecule CC(=O)SCC/C=C/[C@@H]1CC(=O)NCc2cccc(n2)C(=O)NC(=C(C)C)C(=O)N[C@@H](C(C)C)C(=O)O1 was 6.74

a = C/C=C1\NC(=O)c2cccc(n2)CNC(=O)C[C@@H](/C=C/CCSC(=O)CCCCCCC)OC(=O)[C@H](CC)NC1=O
b = C/C=C1\NC(=O)c2cccc(n2)CNC(=O)C[C@@H](/C=C/CCSC(=O)CC)OC(=O)[C@H](C(C)C)NC1=O
Q: Lowest pIC50? choose a or b Please respond with the label that marks your chosen entry.
Result: b

P = C/C=C1\NC(=O)c2cccc(n2)CNC(=O)C[C@@H](/C=C/CCSC(=O)CCCCCCC)OC(=O)[C@H](Cc2ccccc2)NC1=O
Q = C/C=C1\NC(=O)c2cccc(n2)CNC(=O)C[C@@H](/C=C/CCSC(C)=O)OC(=O)[C@H](CCCCNC(=O)OCC2c3ccccc3-c3ccccc32)NC1=O
R = C/C=C1\NC(=O)c2cccc(n2)CNC(=O)C[C@@H](/C=C/CCSC(=O)CCCCCCC)OC(=O)[C@H](C(C)C)NC1=O
Q: Arrange the 3 entries by pIC50 so the values rise. Answer format: the labels, ordered as requested.
Result: Q, P, R
(Q: 6.74, P: 7.03, R: 7.39)
